Tested on: HCC1569;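 further: TDF is a line of transformed human dermal fibroblasts of mesenchymal origin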
assay.method.text: H1.0 immunofluorescence intensity relative to DMSO (% of DMSO); higher = stronger H1.0 induction, active = 140 or more
condition.set: concentration: 10 µM; 24 h
Reported H1.0 immunofluorescence intensity values are given for each entry in this list.
endpoint.name: H1.0 immunofluorescence intensity

>  <molecule>
NS(=O)(=O)c1cc2c(cc1Cl)NC(C1CC3C=CC1C3)NS2(=O)=O (stereo not drawn) [Cyclothiazide]

>  <readout.value>
99.5

$$$$
>  <molecule>
COc1cc(/C=C/C(=O)CC(=O)/C=C/c2ccc(O)cc2)ccc1O

>  <readout.value>
161

$$$$
>  <molecule>
CC(N)=O [Acetamide]

>  <readout.value>
106

$$$$
>  <molecule>
CCCCCCCCCCCCCC=CC(O)C(CO)NC(C)=O (stereo not drawn) [C2 Ceramide]

>  <readout.value>
102

$$$$
>  <molecule>
FC(F)(F)c1ccccc1-n1ccnc1 [1-[2-(Trifluoromethyl)phenyl]imidazole]

>  <readout.value>
108

$$$$
>  <molecule>
Cl.NCc1c[nH]c(=S)n1[C@H]1CCc2c(F)cc(F)cc2C1

>  <readout.value>
111

$$$$
>  <molecule>
COC(=O)/C=C/c1cccc(N(Cc2ccc(-c3ccc(N(C)C)cc3)cc2)C(=O)C2CCCCC2)c1

>  <readout.value>
106

$$$$
>  <molecule>
CC1(C)SC2C(NC(=O)COc3ccccc3)C(=O)N2C1C(=O)[O-] (stereo not drawn) [Pencillin V]

>  <readout.value>
112

$$$$
>  <molecule>
CC1(C)OC2CC3C4CC(F)C5=CC(=O)C=CC5(C)C4(F)C(O)CC3(C)C2(C(=O)CO)O1 (stereo not drawn) [Fluocinolone acetonide]

>  <readout.value>
124

$$$$
>  <molecule>
CNC1(C)C2CCC(C2)C1(C)C.Cl (stereo not drawn) [Mecamylamine hydrochloride]

>  <readout.value>
93.5

$$$$
>  <molecule>
COc1cc2nc(N3CCN(C(=O)C4COc5ccccc5O4)CC3)nc(N)c2cc1OC.CS(=O)(=O)O (stereo not drawn) [Doxazosin mesylate]

>  <readout.value>
110

$$$$
>  <molecule>
CN(C)CCCN1c2ccccc2CCc2ccccc21.Cl [Imipramine hydrochloride]

>  <readout.value>
105

$$$$
>  <molecule>
COC(=O)Nc1nc2ccc(C(=O)c3ccc(F)cc3)cc2[nH]1 [Flubendazole]

>  <readout.value>
168

$$$$
>  <molecule>
NC(=O)c1ccc(N(C(N)=O)c2c(F)cccc2F)nc1-c1ccc(F)cc1F

>  <readout.value>
90.2

$$$$
>  <molecule>
CCOC(=O)c1ncn2c1CN(C)C(=O)c1cc(F)ccc1-2 [Flumazenil]

>  <readout.value>
93.6

$$$$
>  <molecule>
O=C(Nc1cc(Cl)cc2c1[nH]c1cnccc12)c1cccnc1 [IKK Inhibitor X]

>  <readout.value>
106

$$$$
>  <molecule>
O=C(Nc1cccc2c(=O)cc(-c3nn[nH]n3)oc12)c1ccc(OCCCCc2ccccc2)cc1 [Pranlukast]

>  <readout.value>
109

$$$$
>  <molecule>
CCCCCCCCCCCCCCCCCC(=O)O [Octadecanoic acid]

>  <readout.value>
95.3

$$$$
>  <molecule>
Cc1cnc(Nc2ccc(N3CCN(C)CC3)cc2)nc1Nc1cccc(S(=O)(=O)NC(C)(C)C)c1

>  <readout.value>
174

$$$$
>  <molecule>
CC1(NCC(O)COc2cccc3[nH]ccc23)CCC(C(C)(C)NC(=O)CBr)CC1 (stereo not drawn) [Pindobind-5HT1A]

>  <readout.value>
178

$$$$
>  <molecule>
CC(C)C1C2CCC(C2)C1N.Cl (stereo not drawn)

>  <readout.value>
90.8

$$$$
>  <molecule>
C=C1CCC2OC2(C)CCC2C1CC2(C)C (stereo not drawn) [Caryophylline]

>  <readout.value>
91.3

$$$$
>  <molecule>
CC(C)NCC(O)c1ccc(O)c(O)c1.Cl (single isomer, unassigned; (-)) [(-)-Isoproterenol hydrochloride]

>  <readout.value>
93.8

$$$$
>  <molecule>
NCCCCC(NC(CCc1ccccc1)C(=O)O)C(=O)N1CCCC1C(=O)O (stereo not drawn) [Lisinopril]

>  <readout.value>
98.8

$$$$
>  <molecule>
CC(C)(C)c1cc(O)ccc1O [tert-Butylhydroquinone]

>  <readout.value>
89.1

$$$$
>  <molecule>
COc1cc2ncn(-c3cc(OCc4ccccc4S(C)(=O)=O)c(C#N)s3)c2cc1OC [IKK-3 Inhibitor IX]

>  <readout.value>
127

$$$$
>  <molecule>
COc1ccc(C(=O)NCc2ccc(OCCN(C)C)cc2)cc1OC [Itopride]

>  <readout.value>
118

$$$$
>  <molecule>
COc1cccc2c1C(=O)c1c(O)c3c(c(O)c1C2=O)CC(O)(C(=O)CO)CC3OC1CC(N)C(O)C(C)O1.Cl (stereo not drawn) [Doxorubicin.HCl]

>  <readout.value>
1430

$$$$
